Measured inhibition in vivo at 3 mg/kg values are reported for all entries that follow.
- Test system: Anemic Decerebrate Rigidity Sample (EMG, M. triceps brachii)
- test.protocol: Effects on Anemic Decerebrate Rigidity Sample (suppression of EMG of forelimb muscle)
- Format: in vivo, Wistar male rats
- protocol.conditions: iv, 10 min; rat, 3 mg/kg in physiological saline through femoral vein, 10 minutes after administration; read-out: Suppression rate
Counter-ions that a name gives are not always drawn.
Please give a number only; it is taken to be in %.

Previously resolved entries follow.
CC(C)C[C@H]1[C@@H](c2ccccc2)OC(=O)N1CCCN1CCCCCC1	93
C[C@@H]1[C@@H](c2ccccc2)OC(=O)N1CCN1CCCC1 (racemic) [Comparative compound 5, hydrochloride, reference compound]	3

Query: Fill in: inhibition in vivo at 3 mg/kg of Cc1ccc([C@@H]2OC(=O)N(CCCN3CCCCC3)[C@@H]2CC(C)C)cc1 (racemic) is ___
Response: 10.9

Query: Fill in: inhibition in vivo at 3 mg/kg of CC(C)C[C@@H]1[C@H](c2ccccc2)OC(=O)N1CCCN1CCCCC1 (racemic) [Compound 3] is ___
Response: 18

Query: Fill in: inhibition in vivo at 3 mg/kg of CC(C)C[C@H]1[C@H](c2ccccc2)OC(=O)N1CCCN1CCCCC1 is ___
Response: 64.8

Query: Fill in: inhibition in vivo at 3 mg/kg of C[C@@H]1[C@@H](c2ccccc2)OC(=O)N1CCN1CCCCC1 (racemic) [Comparative compound 3, hydrochloride, reference compound] is ___
Response: 2.2

Query: Fill in: inhibition in vivo at 3 mg/kg of CC(C)C[C@H]1[C@@H](c2ccccc2)OC(=O)N1CCCN1CCCCC1 is ___
Response: 37.7

Query: Fill in: inhibition in vivo at 3 mg/kg of CC(C)C[C@@H]1[C@@H](c2ccccc2)OC(=O)N1CCCN1CCCC1 (racemic) is ___
Response: 10.2

Query: Fill in: inhibition in vivo at 3 mg/kg of CC(C)[C@@H]1[C@@H](c2ccccc2)OC(=O)N1CCCN1CCCC1 (racemic) is ___
Response: 18.7

meta.source: patent US4644063A
